Sourced from patent US20250197379A1

- assayed_target: elF4A1 (Homo sapiens, UniProt P60842)
- Construct: endogenous in cells
- Sequence (P60842 whole entry): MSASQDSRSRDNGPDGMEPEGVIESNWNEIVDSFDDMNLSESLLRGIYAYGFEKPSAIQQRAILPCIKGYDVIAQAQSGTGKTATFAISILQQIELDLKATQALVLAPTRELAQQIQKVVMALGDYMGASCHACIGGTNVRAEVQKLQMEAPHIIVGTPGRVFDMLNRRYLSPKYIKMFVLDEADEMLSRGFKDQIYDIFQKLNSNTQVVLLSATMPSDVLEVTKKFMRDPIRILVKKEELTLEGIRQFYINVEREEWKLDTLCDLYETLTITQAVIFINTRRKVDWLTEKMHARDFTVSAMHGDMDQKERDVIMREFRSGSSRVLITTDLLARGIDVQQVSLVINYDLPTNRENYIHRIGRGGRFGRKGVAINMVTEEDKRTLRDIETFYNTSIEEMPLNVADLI
- test: Dual luciferase assay for cap dependent translation initiation (eIF4A)
- assay_setup: Biochemical and cell based activity
Lab note: compare IC50 with 80 nM, writing label 1 if less and label 0 if equal or more.

Would you please look over these solved cases?
[[record]]
compound = "COc1cc(OC)c2c(c1)OC1(c3ccc(Cl)cc3)[C@@H](c3cccc(F)c3)CC(NC(=O)N(C)C)C21O (single isomer, unassigned) [Compound C2, reference compound]"
qualitative_label = "label 1"

[[record]]
compound = "COc1cc(OC)c2c(c1)O[C@@]1(c3ccc(Cl)cc3)[C@H](c3cccc(F)c3)C[C@H](NC(=O)N3CCS(=O)(=O)CC3)[C@@]21O"
qualitative_label = "label 1"

[[record]]
compound = "COc1cc(OC)c2c(c1)O[C@@]1(c3ccc(Cl)cc3)[C@H](c3cccc(F)c3)C[C@H](NC(=O)NC(C)C)[C@@]21O (single isomer, unassigned)"
qualitative_label = "label 0"


Shifting focus to the compound that follows.
Is IC50 of COc1cc(OC)c2c(c1)O[C@@]1(c3ccc(C#N)cc3)[C@H](c3cccc(F)c3)C[C@H](NC(=O)N3CC4(COC4)C3)[C@@]21O strictly below 80 nM? label 1
